Tested on: MCF-7 (human breast cancer cells)
protocolText: MTT cancer cell growth inhibition
Assay type: cell-based
conditionDetails: Homo sapiens, MCF7, 72 h, MCF-7 cells, 72 hours incubation, read-out: GI50 MCF
quantityMeasured: GI50

C/C=C1\NC(=O)c2ccc(SC)c(n2)CNC(=O)C[C@@H](/C=C/CCS)OC(=O)[C@H](CC)NC1=O [Compound 231]; 0.08 µM
C/C=C1\NC(=O)c2ncc(SC)c(n2)CNC(=O)C[C@@H](/C=C/CCSC(C)=O)OC(=O)[C@H](C)NC1=O [Compound 219]; 0.06 µM
C/C=C1\NC(=O)c2nc(ccc2SCC)CNC(=O)C[C@@H](/C=C/CCSC(=O)CCCCC)OC(=O)[C@H](C(C)C)NC1=O [Compound 253]; 0.06 µM
C/C=C1\NC(=O)c2nc(ccc2SCC)CNC(=O)C[C@@H](/C=C/CCSC(=O)CCCCCC)OC(=O)[C@H](C(C)C)NC1=O [Compound 250]; 0.04 µM

Provide measured GI50 value, entry: C/C=C1\NC(=O)c2nc(ccc2SC)CNC(=O)C[C@@H](/C=C/CCSC(=O)CC)OC(=O)[C@H](C(C)C)NC1=O [Compound 162]
0.04 µM
